Collected kon values appear next to each entry.
# TARGET OR SYSTEM: T1, recombinant human GM-CSF (human, UniProt P04141 18-144)
# T1 construct: also called rhGM-CSF; CSF2
# T1 sequence (P04141 18-144 limits assumed): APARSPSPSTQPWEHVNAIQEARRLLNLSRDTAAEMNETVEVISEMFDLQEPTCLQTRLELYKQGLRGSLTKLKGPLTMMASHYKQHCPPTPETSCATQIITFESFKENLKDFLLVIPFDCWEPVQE
# PROCEDURE DETAILS: Biacore
The reply should be a number in M⁻¹ s⁻¹, with the unit left off.

[[record]]
binder = "1D2 SDR mutant K54G/V32R (antibody, IgG1, V domains shown, also called 54G/32R) VH: QVQLVQSGAEVKKPGASVKVSCEASGYTFTDKYLHWVRQAPGQGLEWMAWINPGSGGTFYAQNFKGRVTVTRDTSINTAYLELTSLRLDDTSTYYCARGRDYYDQGAADLWGQGTMVTVSS VL: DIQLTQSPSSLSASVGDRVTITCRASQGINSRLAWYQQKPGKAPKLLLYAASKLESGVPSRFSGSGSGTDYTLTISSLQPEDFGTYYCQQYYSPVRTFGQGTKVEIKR"
observed_property = "kon"
unit_of_measure = "M⁻¹ s⁻¹"
test_result = "1.03e+06"

[[record]]
binder = "1D2 SDR mutant Y103N/V32R (antibody, IgG1, V domains shown) VH: QVQLVQSGAEVKKPGASVKVSCEASGYTFTDKYLHWVRQAPGQGLEWMAWINPKSGGTFYAQNFKGRVTVTRDTSINTAYLELTSLRLDDTSTYYCARGRDYNDQGAADLWGQGTMVTVSS VL: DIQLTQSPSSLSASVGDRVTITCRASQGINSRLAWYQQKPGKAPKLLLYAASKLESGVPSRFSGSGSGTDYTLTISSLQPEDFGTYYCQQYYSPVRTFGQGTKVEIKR"
observed_property = "kon"
unit_of_measure = "M⁻¹ s⁻¹"
test_result = 640000

[[record]]
binder = "1D2 SDR mutant HK54G (antibody, IgG1, V domains shown, also called X3 G) VH: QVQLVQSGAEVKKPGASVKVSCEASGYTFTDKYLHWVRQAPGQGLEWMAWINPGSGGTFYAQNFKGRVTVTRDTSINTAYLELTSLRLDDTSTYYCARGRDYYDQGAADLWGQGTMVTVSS VL: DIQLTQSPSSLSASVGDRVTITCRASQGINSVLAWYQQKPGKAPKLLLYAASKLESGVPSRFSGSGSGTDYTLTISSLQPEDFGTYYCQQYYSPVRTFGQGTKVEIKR"
observed_property = "kon"
unit_of_measure = "M⁻¹ s⁻¹"
test_result = "1.3e+06"

[[record]]
binder = "1D2 SDR mutant HY103N (antibody, IgG1, V domains shown, also called X6 N) VH: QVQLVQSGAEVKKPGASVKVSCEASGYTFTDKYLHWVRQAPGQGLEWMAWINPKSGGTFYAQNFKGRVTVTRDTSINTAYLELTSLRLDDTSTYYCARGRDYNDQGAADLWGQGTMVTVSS VL: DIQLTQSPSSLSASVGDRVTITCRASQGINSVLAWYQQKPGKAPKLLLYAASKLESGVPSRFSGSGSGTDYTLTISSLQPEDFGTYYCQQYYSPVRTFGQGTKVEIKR"
observed_property = "kon"
unit_of_measure = "M⁻¹ s⁻¹"
test_result = "1.67e+06"

[[record]]
binder = "1D2 SDR mutant Y103R/V32R (antibody, IgG1, V domains shown) VH: QVQLVQSGAEVKKPGASVKVSCEASGYTFTDKYLHWVRQAPGQGLEWMAWINPKSGGTFYAQNFKGRVTVTRDTSINTAYLELTSLRLDDTSTYYCARGRDYRDQGAADLWGQGTMVTVSS VL: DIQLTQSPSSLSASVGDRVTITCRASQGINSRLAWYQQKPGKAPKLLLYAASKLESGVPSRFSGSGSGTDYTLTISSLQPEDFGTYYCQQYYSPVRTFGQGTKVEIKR"
observed_property = "kon"
unit_of_measure = "M⁻¹ s⁻¹"
test_result = 998000

[[record]]
binder = "1D2 SDR mutant HY103R (antibody, IgG1, V domains shown, also called X6 R) VH: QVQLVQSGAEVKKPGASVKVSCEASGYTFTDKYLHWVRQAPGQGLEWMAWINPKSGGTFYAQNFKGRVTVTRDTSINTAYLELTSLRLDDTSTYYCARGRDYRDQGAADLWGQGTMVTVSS VL: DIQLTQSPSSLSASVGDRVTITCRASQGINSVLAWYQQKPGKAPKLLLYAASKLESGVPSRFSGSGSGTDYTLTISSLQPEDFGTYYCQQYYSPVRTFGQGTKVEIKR"
observed_property = "kon"
unit_of_measure = "M⁻¹ s⁻¹"
test_result = "1.38e+06"


Please give measured kon of the following entry: antibody 1D2 (antibody, V domains shown, also called 1D2-WT; WT) VH: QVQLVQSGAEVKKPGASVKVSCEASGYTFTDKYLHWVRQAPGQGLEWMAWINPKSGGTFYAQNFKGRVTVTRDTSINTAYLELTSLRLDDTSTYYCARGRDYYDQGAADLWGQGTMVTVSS VL: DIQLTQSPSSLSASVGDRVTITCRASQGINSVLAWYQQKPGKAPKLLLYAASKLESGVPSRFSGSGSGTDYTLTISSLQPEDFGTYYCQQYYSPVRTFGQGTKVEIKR
1.75e+06
